- measurementNotes: Pharmacokinetic test in mice
- Type: in vivo
- runParameters: mouse; male ICR mice, intravenous administration (2.5 mg/kg), plasma

>  <structureSmilesString>
CS(=O)(=O)N1CCC(CCOc2cc(CN3Cc4ccc(C5CC5)cc4C3)ccn2)CC1

>  <unitString>
mL/min/kg

>  <clearance>
17.3

$$$$
>  <structureSmilesString>
CS(=O)(=O)N1CC(OC(=O)N2CCC3(CC2)CC(Oc2cc(CN4Cc5ccc(C(F)(F)F)cc5C4)ccn2)C3)C1

>  <unitString>
mL/min/kg

>  <clearance>
9.45

$$$$
>  <structureSmilesString>
[2H]C([2H])([2H])n1cc(C(=O)N[C@H]2CC[C@H](CCOc3cc(CN4Cc5ccc(C(F)(F)F)cc5C4)ccn3)CC2)cn1

>  <unitString>
mL/min/kg

>  <clearance>
7.37

$$$$
>  <structureSmilesString>
[2H]C([2H])([2H])C(=O)N[C@H]1CC[C@H](c2cc3oc(CN4Cc5ccc(C(F)(F)F)cc5C4)cc(=O)c3o2)CC1

>  <unitString>
mL/min/kg

>  <clearance>
14.2

$$$$
